test-system: Glucagon receptor (Homo sapiens); note: assay procedure not described here
Sequence (P47871 whole entry): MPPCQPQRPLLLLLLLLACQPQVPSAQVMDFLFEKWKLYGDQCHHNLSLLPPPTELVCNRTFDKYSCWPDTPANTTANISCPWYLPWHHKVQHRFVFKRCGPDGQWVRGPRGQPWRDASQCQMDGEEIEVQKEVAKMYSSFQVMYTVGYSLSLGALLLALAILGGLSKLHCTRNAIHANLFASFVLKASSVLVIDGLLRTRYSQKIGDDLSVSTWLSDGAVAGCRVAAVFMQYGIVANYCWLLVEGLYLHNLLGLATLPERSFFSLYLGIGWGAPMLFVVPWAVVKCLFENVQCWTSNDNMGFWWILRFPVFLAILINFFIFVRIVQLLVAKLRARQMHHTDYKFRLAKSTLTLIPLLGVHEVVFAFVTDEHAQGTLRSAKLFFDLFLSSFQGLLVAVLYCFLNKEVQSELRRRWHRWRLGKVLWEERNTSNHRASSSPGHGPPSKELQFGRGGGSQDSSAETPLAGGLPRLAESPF
assay-metric: AC50

| compound | test-system | reported |
| --- | --- | --- |
| CN(CCOc1ccc(CC2SC(=O)NC2=O)cc1)c1ccccn1 (centres undefined) [ROSIGLITAZONE] | Glucagon receptor (Homo sapiens) | > 30 µM |
| O=C1Cc2cc(CCN3CCN(c4nsc5ccccc45)CC3)c(Cl)cc2N1 [ZIPRASIDONE] | Glucagon receptor (Homo sapiens) | > 30 µM |
| Cc1ccc(C)c(OCCCC(C)(C)C(=O)O)c1 [GEMFIBROZIL] | Glucagon receptor (Homo sapiens) | > 30 µM |
| O=C(O)Cc1ccccc1Oc1ccc(Cl)cc1Cl [FENCLOFENAC] | Glucagon receptor (Homo sapiens) | > 30 µM |

List AC50 for every entry below, keeping the order given.
1. O=C(O)Cc1ccccc1Nc1c(Cl)cccc1Cl [DICLOFENAC]
2. Cc1nc(Nc2ncc(C(=O)Nc3c(C)cccc3Cl)s2)cc(N2CCN(CCO)CC2)n1 [DASATINIB]
3. Fc1ccc([C@@H]2CCNC[C@H]2COc2ccc3c(c2)OCO3)cc1 [PAROXETINE]
4. C[C@@H]1C[C@H]2[C@@H]3C[C@H](F)C4=CC(=O)C=C[C@]4(C)[C@@]3(F)[C@@H](O)C[C@]2(C)[C@@]1(OC(=O)c1ccco1)C(=O)SCF [FLUTICASONE FUROATE]
5. CN[C@@H](C)[C@@H](O)c1ccccc1 [PSEUDOEPHEDRINE]
6. CCOc1nc2cccc(C(=O)O)c2n1Cc1ccc(-c2ccccc2-c2nnn[nH]2)cc1

> 30 µM
> 10 µM
> 30 µM
> 10 µM
> 30 µM
> 30 µM

List AC50 for every entry below, keeping the order given.
1. CC[C@@H](CO)NC(=O)[C@@H]1C=C2c3cccc4c3c(cn4C)C[C@H]2N(C)C1 [METHYSERGIDE]
2. CCCc1nc2c(C)cc(-c3nc4ccccc4n3C)cc2n1Cc1ccc(-c2ccccc2C(=O)O)cc1

["> 30 µM", "> 30 µM"]

----------
test-system: Amine oxidase [flavin-containing] A (Homo sapiens); note: assay procedure not described here
Sequence (P21397 whole entry): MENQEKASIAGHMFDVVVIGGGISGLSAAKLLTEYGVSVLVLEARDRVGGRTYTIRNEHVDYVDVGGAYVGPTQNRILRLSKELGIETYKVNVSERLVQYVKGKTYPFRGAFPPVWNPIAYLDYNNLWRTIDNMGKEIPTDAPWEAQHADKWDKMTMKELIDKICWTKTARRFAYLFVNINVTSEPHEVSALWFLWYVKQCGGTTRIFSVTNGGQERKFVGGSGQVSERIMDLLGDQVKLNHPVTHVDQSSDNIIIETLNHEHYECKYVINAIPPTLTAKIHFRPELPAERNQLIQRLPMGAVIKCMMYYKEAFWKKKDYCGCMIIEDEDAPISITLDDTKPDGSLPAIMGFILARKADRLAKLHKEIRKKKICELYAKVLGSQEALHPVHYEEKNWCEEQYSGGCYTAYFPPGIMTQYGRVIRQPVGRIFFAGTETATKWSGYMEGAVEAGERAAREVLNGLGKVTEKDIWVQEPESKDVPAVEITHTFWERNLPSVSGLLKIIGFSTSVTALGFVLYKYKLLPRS
Format: functional
Assign AC50 to each entry below.

Examples from the recorded data:
| compound | assay-metric | reported |
| --- | --- | --- |
| CCOC(=O)[C@@H](N)Cc1ccc(-c2cc(O[C@H](c3ccc(Cl)cc3-n3ccc(C)n3)C(F)(F)F)nc(N)n2)cc1 [TELOTRISTAT ETHYL] | AC50 | > 30 µM |
| O=C(CCCN1CCC(O)(c2ccc(Br)cc2)CC1)c1ccc(F)cc1 [BROMPERIDOL] | AC50 | > 30 µM |
| Cn1c(=O)c2c(ncn2CCOC(=O)C(C)(C)Oc2ccc(Cl)cc2)n(C)c1=O [THEOFIBRATE] | AC50 | > 30 µM |
| CO[C@H]1C[C@H](O[C@H]2CC[C@@]3(C)[C@H](CC[C@@H]4[C@@H]3CC[C@]3(C)[C@@H](C5=CC(=O)OC5)[C@@H](OC(C)=O)C[C@]43O)C2)O[C@@H](C)[C@@H]1O [OLEANDRIN] | AC50 | > 30 µM |
| C=CCN1CCc2nc(N)sc2CC1 [TALIPEXOLE] | AC50 | > 30 µM |
| CCc1nc(N)nc(N)c1-c1ccc(Cl)cc1 [PYRIMETHAMINE] | AC50 | > 30 µM |
| CN(C)CCCN1c2ccccc2CCc2ccccc21 [IMIPRAMINE] | AC50 | > 10 µM |
| O=C1c2ccccc2C(=O)C1c1ccccc1 [PHENINDIONE] | AC50 | > 10 µM |

List AC50 for every entry below, keeping the order given.
1. CN[C@]1(c2ccccc2Cl)CCCCC1=O [ESKETAMINE]
2. CN[C@@H](C)[C@@H](O)c1ccccc1 [PSEUDOEPHEDRINE]

1. > 30 µM
2. > 10 µM
